// data source = the supplement of paper PMC9170038

System: MS2 coat protein
Test: apparent KD of MS2 coat protein; designed switch direction (-1 OFF switch, 1 ON switch): -1; higher = weaker reporter binding
Details: input ligand: FMN 200 uM
test readout: apparent KD of MS2 coat protein (nM)
# number only, unit nM dropped from output

GGAUAAAACUGAGGAUAUACGUAUCGCUAGCGAGUAGAAGGCAGACAUGAGGAUCACCCAUGUGAGUUCUCGAUAAGAAACACG [Prohibition 60 - Jieux - Exclusion NG 1] (Eterna round: R96, puzzle: Exclusion NG 1) | 163
AAUGAUUGACGAGGAUAUUGUGGUGAAACACGACGAGAAGGCGUAUGUCACAUGAGGAUCACCCAUGUGAACUUUGUGGAUAUA [Ex NG1 #70] (Eterna round: R96, puzzle: Exclusion NG 1) | 30.4

apparent KD of MS2 coat protein lookup needed for GUGGUACAUGAGGAUCACCCAUGUAAGGAUAUAGUCGGCUGGUGGUCGCGGGUGGUGGCUAGAAGGUGCGUGCG [-19.6, -18.2 kcal, A 19%] (Eterna round: R97, puzzle: Exclusion 1) , thanks. 101

Fill blank: measured apparent KD of MS2 coat protein of the sequence CCAUAUAACUGAGGAUAUAAUCACCACUAACAUUUAGAAGGCAGACAUGAGGAUCACCCAUGUGAUUUCUCAAUAUUAUACAUC [Prohibition 77 - Jieux - Exclusion NG 1] (Eterna round: R96, puzzle: Exclusion NG 1) is ____. 387

----------
System: MS2 coat protein
Test: apparent KD of MS2 coat protein; designed switch direction (-1 OFF switch, 1 ON switch): -1; higher = weaker reporter binding
Settings: Eterna round: R95; input ligand: FMN 200 uM
A collection of sequences and their measured apparent KD of MS2 coat protein
Respond with the bare value in nM.

AUGAGGGUAAGAAGGUGAAGAUAGAGCGUACCUUAUGGAACAUGAGGAUCACCCAUGUAGCUUUUUGCUCGUCUUAU [JR_SV3TOV2_Sub032] (puzzle: Sensor v3, turn-off variant 2) | 36.1
CUUCACCCACCAGAGCUCACCCACAAACCUGCCCUGGUGACAUGAGGAUCACCCAUGUUUUUUGCCCGUCUUAUCUU [Diletibi] (puzzle: Sensor v3, turn-off variant 2) | 42

Which apparent KD of MS2 coat protein is listed for UUUAAUUUUUUUUUUUUACAAGCUUUUUGCUCGUCUUAUACAUGAGGAUCACCCAUGUGAAUGGGAGGUAAAUUAUC [JMF 73] (puzzle: Sensor v3, turn-off variant 2) ? 175

----------
System: K4 kissing-loop RNA reporter;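 note: bound reporter read as fluorescence of individual clusters on recovered sequencing chips by microscopy, with normalized cluster intensities fitted with a binding model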
Test: apparent KD of K4 kissing-loop reporter; higher = weaker reporter binding
Conditions: Eterna round: R107; input ligand: FMN 200 uM
Rule: apparent KD of K4 kissing-loop reporter under 200 nM gives Not fulfilled, otherwise Fulfilled.

Consider the worked cases shown below.
UGAUAGGACAGAAGGAGCGGUAGUGAUGUUGCCAAAAGGGUAAGGUGUCAAAAGACACCCUACCAGGUAGGUCGCUGUCCUAUCU | Not fulfilled
CGCGCGCGCGCGCGCGCGCGCGAAAAUGAUACCAGUAUAUAAGAAUACCCUUGGCAGCAUAAGAAAGAUAUAGUGAUGUUGUAUA [SSTheophA.A] | Fulfilled

apparent KD of K4 kissing-loop reporter >= 200 nM for UGAUAGGACAGAAGGAGCGGAAUGCUGUCCAAAAGGACAGCAAAUAUAACAGGAGUGAUGUUCCAGGUAGGUCGCUGUCCUAUCU [ArgBX 21 #SwitchBubble #StaticStem] ? Fulfilled

Textbook exercise: given the entry UGACUGGACUGAAGGAGCGGGCGAGACAAAGUCUCGAACUCGUAGUGAUGUUACGAAAUAACCCAGGUAGGUCGCAGUCUAGUCU , state whether its apparent KD of K4 kissing-loop reporter is greater than or equal to 200 nM. Not fulfilled

Hi, just wondering whether UGACUGGACUGAAGGAGCGCUUAACUCCUAGUGAUGUUAGGACAACGAGACAAAGUCUCGAAGCAGGUAGGUCGCAGUCUAGUCU shows apparent KD of K4 kissing-loop reporter of 200 nM or higher. Fulfilled
